# ASSAY_REMARKS: AUC (0 to infinity) in rat at 1 mg/kg, iv
# Assay type: ADME, organism-based
# Design: time infinity, dose 1 mg/kg, route intravenous
# CONDITIONS: plasma
VALUE_KIND: AUC(0-inf)

These recorded examples may help you get a feel for the data.
| COMPOUND | MEAS_VALUE |
| --- | --- |
| NC(C(=O)N1CCC(Nc2ccc3[nH]ncc3c2)CC1)c1ccc(Br)cc1 (centres undefined) | 0.95 µM·h |
| O=C(C(O)c1ccc(Br)cc1)N1CCC(Nc2ccc3[nH]ncc3c2)CC1 (centres undefined) | 1.35 µM·h |

Okay, here is my list. What is AUC(0-inf) for each of these?
1. NC(C(=O)N1CCN(c2ccc3[nH]ncc3c2)CC1)c1ccc(Br)cc1 (centres undefined)
2. O=C(C(O)c1ccc(Br)cc1)N1CCN(c2ccc3[nH]ncc3c2)CC1 (centres undefined)

Ans:
1. 0.54 µM·h
2. 0.38 µM·h

====

# ASSAY_REMARKS: Metabolic stability in human liver microsomes
# CONDITIONS: liver microsomes
VALUE_KIND: half-life (min)
Give bare numbers, in min.

| COMPOUND | half-life [min] |
| --- | --- |
| NC(C(=O)N1CCN(c2ccc3[nH]ncc3c2)CC1)c1ccc(Br)cc1 (configuration not stated) | 9.8 |

Q: For O=C(C(O)c1ccc(Br)cc1)N1CCC(Nc2ccc3[nH]ncc3c2)CC1 (configuration not stated) , what is its reported half-life?
Ans: 36.3
